System: NRF2
Test Details: NRF2 activation assay (DiscoverX PathHunter NRF2 translocation kit, U2OS cells)
Format: cell-based
Conditions Used: −GSH; normalised to dimethyl fumarate high control; Table 3
Counter-ions that a name gives are not always drawn.
Assay Readout: NRF2 activation Emax

Observe how each entry below is paired with its result.
Compound	Measured Result
COC(=O)/C=C/C(=O)OC [dimethyl fumarate, Dimethyl fumarate, reference compound]	100%
O=C(/C=C/C(=O)OC1CCCCCCC1)OCCc1nnn[nH]1 [Example 5]	+++ (+++ means 150-199%)
O=C(O)CCOC(=O)/C=C/C(=O)OC1CCCCC1 [Example 4]	+++ (+++ means 150-199%)
O=C(O)COC(=O)/C=C/C(=O)OC1(c2ccc(C(F)(F)F)cc2)CCC1 [Example 15]	+++ (+++ means 150-199%)
CCCCCC[C@@H](C)OC(=O)/C=C/C(=O)OCC(=O)O [Example 13]	+++ (+++ means 150-199%)

API: the following record is the query input.
Which NRF2 activation Emax is listed for CCCCCC[C@@H](C)OC(=O)/C=C/C(=O)OCCC(=O)O [Example 14] ?
+++ (+++ means 150-199%)

###

Test Details: Hepatocyte stability assay, human
Type: in vitro ADME
Conditions Used: cryopreserved hepatocytes, 10 μM compound, Table 6, read-out: T½
Description: Biological Example 3—Hepatocyte Stability Assay […] The metabolic stability in hepatocytes assay involves a time-dependent reaction using both positive and negative controls. The cells must be pre-incubated at 37° C. then spiked with test compound (and positive control); samples taken at pre-determined time intervals are analysed to monitor the change in concentration of the initial drug compound over 60 minutes. […]
Recorded half-life at 10 μM for the following compounds

Which half-life at 10 μM is listed for C[C@H](OC(=O)/C=C/C(=O)O)c1ccc(C(F)(F)F)cc1 [Intermediate 19] ?
> 100 min

Which half-life at 10 μM is listed for O=C(O)/C=C/C(=O)OC1(c2ccc(C(F)(F)F)cc2)CC1 [Intermediate 38] ?
30 to 100 min

Which half-life at 10 μM is listed for O=C(O)/C=C/C(=O)OC1(c2cccc(C(F)(F)F)c2)CCC1 [Intermediate 10] ?
5 to 29 min

Which half-life at 10 μM is listed for O=C(O)/C=C/C(=O)OC1(c2ccc(C(F)(F)F)cc2)COC1 [Intermediate 18] ?
30 to 100 min

Which half-life at 10 μM is listed for O=C(O)/C=C/C(=O)OC1(c2ccc(Br)cc2)CCC1 [Intermediate 12] ?
30 to 100 min

###

System: hepatocytes
Test Details: Hepatocyte stability assay, human
Format: in vitro ADME
Conditions Used: 10 μM compound, Table 6
Assay Readout: CIint

Observe how each entry below is paired with its result.
Compound	Measured Result
C[C@@H](OC(=O)/C=C/C(=O)O)c1ccc(C(F)(F)F)cc1 [Intermediate 20]	++++ (++++ means 5-15)
O=C(O)/C=C/C(=O)OC1(c2cc(Cl)cc(Cl)c2)CCC1 [Intermediate 14]	++++ (++++ means 5-15)
O=C(O)/C=C/C(=O)OC1(c2ccc(C(F)(F)F)cc2)CSC1 [Intermediate 17]	++ (++ means >30-110)
O=C(O)/C=C/C(=O)OC1(c2ccc(C(F)(F)F)c(F)c2)CCC1 [Intermediate 16]	+++ (+++ means >15-30)
O=C(O)/C=C/C(=O)OC1(c2ccc(C(F)(F)F)cc2)CC(F)(F)C1 [Intermediate 32]	+++ (+++ means >15-30)
O=C(O)/C=C/C(=O)OC1CCCCCC1 [Intermediate 8]	+++ (+++ means >15-30)

Which CIint is listed for O=C(O)/C=C/C(=O)OC1CC2(CCC2)C1 [Intermediate 7] ?
+++ (+++ means >15-30)

Which CIint is listed for O=C(O)/C=C/C(=O)OC1(c2cc(F)c(C(F)(F)F)c(F)c2)CCC1 [Intermediate 29] ?
++++ (++++ means 5-15)

Which CIint is listed for O=C(O)/C=C/C(=O)OC1(c2cccc(C(F)(F)F)c2)CCC1 [Intermediate 10] ?
++ (++ means >30-110)

Cited source for all entries: patent US20240010606A1
